Source of measurements: patent US9822107B2

molecular target: recombinant human GST-SYK (Homo sapiens, UniProt P43405); test: Homogeneous Time-Resolved Fluorescence (HTRF) assay for the recombinant human Syk enzyme; settings: recombinant human GST-SYK 5 pM, ATP 25 μM, read-out: rhSYK Activity (IC50)
pIC50: −log10 of the molar value.

{"compound": "CCOC(=O)[C@H]1CC[C@](O)(c2ncc(-c3cc(Nc4nccc(OC(C)C)n4)cc4c3OC(C)(C)C(=O)N4)s2)CC1 [Example 2.6]", "tgt": "recombinant human GST-SYK (Homo sapiens, UniProt P43405)", "pIC50": 8.15}
{"compound": "CC(C)Oc1ccnc(Nc2cc3c(c(-c4cnc([C@]5(O)CC[C@@H](C(=O)O)CC5)s4)c2)OC(C)(C)C(=O)N3)n1 [Example 2.7]", "tgt": "recombinant human GST-SYK (Homo sapiens, UniProt P43405)", "pIC50": 9.44}
{"compound": "CC(O)(c1ncc(-c2c[nH]c3cc(Nc4nccc(C(F)(F)F)n4)ccc23)s1)[C@H]1CC[C@H](C(=O)O)CC1 (single isomer, unassigned) [Example 1.9]", "tgt": "recombinant human GST-SYK (Homo sapiens, UniProt P43405)", "pIC50": 7.40}
{"compound": "O=C(O)[C@H]1CC[C@](O)(c2ncc(-c3n[nH]c4ccc(Nc5nccc(C(F)(F)F)n5)cc34)s2)CC1 [Example 1.11]", "tgt": "recombinant human GST-SYK (Homo sapiens, UniProt P43405)", "pIC50": 9.30}
{"compound": "CC(O)(c1ncc(-c2cc(Nc3nccc(C(F)(F)F)n3)cc3[nH]ccc23)s1)[C@H]1CC[C@H](C(=O)O)CC1 (single isomer, unassigned) [Example 1.1]", "tgt": "recombinant human GST-SYK (Homo sapiens, UniProt P43405)", "pIC50": 9.30}
{"compound": "Cn1ccc2c(-c3cnc([C@@]4(O)CC[C@H](C(=O)O)C(C)(C)C4)s3)cc(Nc3nccc(C(F)(F)F)n3)cc21 (single isomer, unassigned) [Example 1.4]", "tgt": "recombinant human GST-SYK (Homo sapiens, UniProt P43405)", "pIC50": 9.32}

---

biological target: recombinant human GST-SYK (Homo sapiens); experiment: Homogeneous Time-Resolved Fluorescence (HTRF) assay for the recombinant human Syk enzyme; settings: recombinant human GST-SYK 5 pM, ATP 25 μM, read-out: rhSYK Activity (IC50)

{"compound": "CC1(C)C[C@@](O)(c2ncc(-c3ccnc4cc(Nc5nccc(C(F)(F)F)n5)ccc34)s2)CC[C@@H]1C(=O)O (single isomer, unassigned)", "tgt": "recombinant human GST-SYK (Homo sapiens)", "IC50": "63.2 nM"}
{"compound": "O=C(O)[C@H]1CC[C@](O)(c2ncc(-c3c[nH]c4ccc(Nc5nccc(C(F)F)n5)cc34)s2)CC1", "tgt": "recombinant human GST-SYK (Homo sapiens)", "IC50": "0.5 nM"}
{"compound": "O=C(O)[C@H]1CC[C@](O)(c2ncc(-c3c[nH]c4ccc(Nc5nccc(C(F)(F)F)n5)cc34)s2)CC1", "tgt": "recombinant human GST-SYK (Homo sapiens)", "IC50": "0.5 nM"}
{"compound": "C[C@](O)(c1ncc(-c2cc(Nc3nccc(C(F)(F)F)n3)cc3[nH]ncc23)s1)C1CCC(C(=O)O)CC1 (single isomer, unassigned)", "tgt": "recombinant human GST-SYK (Homo sapiens)", "IC50": "0.5 nM"}
{"compound": "O=c1[nH]c2cc(Nc3nccc(C(F)(F)F)n3)cc(-c3cnc(C4(O)CCC4)s3)c2[nH]1", "tgt": "recombinant human GST-SYK (Homo sapiens)", "IC50": "10.1 nM"}
{"compound": "CC1(C)C[C@@](O)(c2ncc(-c3c[nH]c4cc(Nc5nccc(C(F)(F)F)n5)ccc34)s2)CC[C@@H]1C(=O)O (single isomer, unassigned)", "tgt": "recombinant human GST-SYK (Homo sapiens)", "IC50": "49 nM"}
